B1: LRRC45 (parent)
chain: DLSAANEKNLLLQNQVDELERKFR

variants of: B1; experiment: protein stability index of a GFP-peptide fusion (GPS, HEK-293T) (PSI 1-6); higher = more stable; conditions: c terminus: a fixed tail appended;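 further: lentivirally expressed fusions sorted by FACS into six bins by GFP to DsRed ratio, PSI derived from sequencing read proportions per bin multiplied by bin number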
Could you please report measured protein stability index for the items listed next?
Give bare numbers.

Some variants with recorded protein stability index:
Summary for this variant, N9G : protein stability index is 3.93

Summary for this variant, F23C : protein stability index is 4.01

Summary for this variant, L11W : protein stability index is 3.89

# input for lookup
Summary for this variant, E7H : protein stability index is 3.94
